Each entry below carries its measured pIC50, system: Serine/threonine-protein kinase PLK2 (Homo sapiens, UniProt Q9NYY3).
Sequence (Q9NYY3 whole entry): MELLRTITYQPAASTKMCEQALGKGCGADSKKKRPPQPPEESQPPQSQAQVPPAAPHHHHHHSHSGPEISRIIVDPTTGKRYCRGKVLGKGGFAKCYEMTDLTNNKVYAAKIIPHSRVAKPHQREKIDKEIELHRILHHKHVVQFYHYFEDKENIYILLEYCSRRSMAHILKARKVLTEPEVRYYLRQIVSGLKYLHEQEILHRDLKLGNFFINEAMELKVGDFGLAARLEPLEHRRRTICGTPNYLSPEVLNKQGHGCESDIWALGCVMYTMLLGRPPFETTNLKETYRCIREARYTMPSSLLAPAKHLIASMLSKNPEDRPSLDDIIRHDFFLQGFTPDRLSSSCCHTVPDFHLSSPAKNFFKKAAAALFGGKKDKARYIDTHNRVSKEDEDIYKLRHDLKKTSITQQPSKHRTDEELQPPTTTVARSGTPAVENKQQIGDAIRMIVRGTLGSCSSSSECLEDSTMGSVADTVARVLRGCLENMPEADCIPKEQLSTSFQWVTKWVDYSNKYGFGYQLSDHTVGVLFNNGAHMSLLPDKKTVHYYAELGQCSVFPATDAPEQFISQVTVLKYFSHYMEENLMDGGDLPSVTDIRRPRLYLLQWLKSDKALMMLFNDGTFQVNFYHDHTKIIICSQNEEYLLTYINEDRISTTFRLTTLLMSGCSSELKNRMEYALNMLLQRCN
pIC50: −log10 of the molar value.

STRUCTURE_SMILES	BOUND_TYPE	pIC50
O=C1Nc2ccccc2/C1=C\c1ccc2c(/C=C/c3ccccn3)n[nH]c2c1	<	5.00
O=C1Nc2ccc(Cl)cc2/C1=C\c1ccc2cn[nH]c2c1	<	5.00
O=C1Nc2ccccc2/C1=C\c1ccc2c(/C=C/c3ccccc3)n[nH]c2c1	<	5.00
O=C1Nc2ccccc2/C1=C\c1ccc2cn[nH]c2c1	=	5.24
O=C1Nc2ccc(Cl)cc2/C1=C\c1ccc2c(/C=C/c3ccncc3)n[nH]c2c1	<	5.00
CC(=O)Nc1ccc2c(c1)/C(=C\c1ccc3cn[nH]c3c1)C(=O)N2	=	5.00
O=C1Nc2ccc(F)cc2/C1=C\c1ccc2cn[nH]c2c1	=	5.36
CCc1ccc2c(c1)/C(=C\c1ccc3c(/C=C/c4cccnc4)n[nH]c3c1)C(=O)N2	<	5.00
O=C1Nc2ccccc2/C1=C\c1ccc2[nH]nnc2c1	=	5.05
O=C1Nc2ccccc2/C1=C\c1ccc2c(/C=C/c3ccc(C(=O)O)cc3)n[nH]c2c1	<	5.00

###

test: Cmax in SCID mouse at 50 mg/kg, ip; format: ADME, organism-based; design: dose 50 mg/kg, route intraperitoneal; conditions: in vivo
OBSERVED_PROPERTY: Cmax (ng/mL)

STRUCTURE_SMILES	OBSERVED_PROPERTY	UNITS	VAL
COc1ccc2c(c1)/C(=C\c1ccc3c(/C=C/c4ccc(N5CCN(C)CC5)nc4)n[nH]c3c1)C(=O)N2	Cmax	ng/mL	92

###

pIC50: −log10 of the molar value.
Notes on pIC50 obtained with Serine/threonine-protein kinase PLK1 (Homo sapiens).
Sequence (P53350 whole entry): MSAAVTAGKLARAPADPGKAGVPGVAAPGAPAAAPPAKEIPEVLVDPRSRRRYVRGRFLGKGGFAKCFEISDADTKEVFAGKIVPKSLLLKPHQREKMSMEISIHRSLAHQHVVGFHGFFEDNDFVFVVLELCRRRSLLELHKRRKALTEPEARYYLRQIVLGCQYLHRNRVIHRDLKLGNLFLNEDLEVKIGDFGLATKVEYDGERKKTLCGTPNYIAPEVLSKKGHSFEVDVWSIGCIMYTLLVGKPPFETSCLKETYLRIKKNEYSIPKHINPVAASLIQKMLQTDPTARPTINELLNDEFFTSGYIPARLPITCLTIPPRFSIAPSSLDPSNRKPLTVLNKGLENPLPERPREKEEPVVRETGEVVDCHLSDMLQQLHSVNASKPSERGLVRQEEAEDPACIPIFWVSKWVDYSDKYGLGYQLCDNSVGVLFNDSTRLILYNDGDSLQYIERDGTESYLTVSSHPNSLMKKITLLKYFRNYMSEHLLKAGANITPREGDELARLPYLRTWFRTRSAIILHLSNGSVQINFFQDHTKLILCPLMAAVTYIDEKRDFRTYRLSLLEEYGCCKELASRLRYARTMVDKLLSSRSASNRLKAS

STRUCTURE_SMILES	pIC50
CN(C)Cc1ccc(/C=C/c2n[nH]c3cc(/C=C4/C(=O)Nc5ccccc54)ccc23)cc1	< 5.00
COc1ccc2c(c1)/C(=C\c1ccc3c(/C=C/c4ccc(N5CCN(C)CC5)nc4)n[nH]c3c1)C(=O)N2	< 5.00
CNC(=O)c1ccc2c(c1)/C(=C\c1ccc3cn[nH]c3c1)C(=O)N2	4.31

###

pIC50 data for Serine/threonine-protein kinase PLK1 (Homo sapiens, UniProt P53350) follow.
pIC50: −log10 of the molar value.

STRUCTURE_SMILES	BOUND_TYPE	pIC50
O=C1Nc2ccc(I)cc2/C1=C/c1cc(Br)c(O)c(Br)c1	=	5.34
O=C1Nc2ccccc2/C1=C/c1ccc(O)cc1	=	4.60
O=C1Nc2ccccc2/C1=C\c1ccc2c(/C=C/c3ccncc3)n[nH]c2c1	<	5.00
O=C1Nc2ccccc2/C1=C/c1ccccc1O	=	4.54
COc1ccc2c(c1)/C(=C\c1ccc3c(/C=C/c4ccc(CN(C)C)cc4)n[nH]c3c1)C(=O)N2	<	5.00
O=C1Nc2ccccc2/C1=C\c1ccc2c(/C=C/c3cccnc3)n[nH]c2c1	<	5.00

###

biological target: Cytochrome P450 3A4 (Homo sapiens, UniProt P08684)
Sequence (P08684 whole entry): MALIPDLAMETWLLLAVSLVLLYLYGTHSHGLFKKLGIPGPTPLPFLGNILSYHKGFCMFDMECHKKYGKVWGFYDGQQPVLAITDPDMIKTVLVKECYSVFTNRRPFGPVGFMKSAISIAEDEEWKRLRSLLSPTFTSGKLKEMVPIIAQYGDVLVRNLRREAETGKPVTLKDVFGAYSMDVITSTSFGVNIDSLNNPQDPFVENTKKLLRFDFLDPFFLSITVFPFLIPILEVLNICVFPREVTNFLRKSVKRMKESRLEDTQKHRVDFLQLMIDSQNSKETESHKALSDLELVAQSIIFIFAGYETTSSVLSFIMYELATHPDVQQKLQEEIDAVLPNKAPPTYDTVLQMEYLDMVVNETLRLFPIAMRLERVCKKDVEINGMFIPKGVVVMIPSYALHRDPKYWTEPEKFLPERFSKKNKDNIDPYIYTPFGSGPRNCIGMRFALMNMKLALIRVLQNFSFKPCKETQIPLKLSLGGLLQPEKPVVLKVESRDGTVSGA
OBSERVED_PROPERTY: IC50

STRUCTURE_SMILES	VAL
CN(C)Cc1ccc(/C=C/c2n[nH]c3cc(/C=C4/C(=O)Nc5ccccc54)ccc23)cc1	10 µM

###

Measured pIC50, listed per entry.
biological target: Cytochrome P450 2D6 (Homo sapiens)
Sequence (P10635 whole entry): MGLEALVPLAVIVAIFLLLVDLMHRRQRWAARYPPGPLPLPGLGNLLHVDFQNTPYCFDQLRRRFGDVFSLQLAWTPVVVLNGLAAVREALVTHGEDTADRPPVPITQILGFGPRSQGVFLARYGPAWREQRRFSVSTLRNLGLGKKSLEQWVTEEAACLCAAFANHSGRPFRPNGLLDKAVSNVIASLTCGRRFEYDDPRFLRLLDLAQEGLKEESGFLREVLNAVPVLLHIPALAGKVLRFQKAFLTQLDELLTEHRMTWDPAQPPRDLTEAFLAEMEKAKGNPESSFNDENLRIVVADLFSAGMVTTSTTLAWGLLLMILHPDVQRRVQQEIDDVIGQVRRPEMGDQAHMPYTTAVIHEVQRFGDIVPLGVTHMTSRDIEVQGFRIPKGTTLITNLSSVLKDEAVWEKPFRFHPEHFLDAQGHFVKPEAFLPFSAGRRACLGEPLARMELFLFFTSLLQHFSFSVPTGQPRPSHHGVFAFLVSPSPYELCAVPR
pIC50: −log10 of the molar value.

STRUCTURE_SMILES	pIC50
CN(C)Cc1ccc(/C=C/c2n[nH]c3cc(/C=C4/C(=O)Nc5ccccc54)ccc23)cc1	5.05
CN1CCN(c2ccc(/C=C/c3n[nH]c4cc(/C=C5/C(=O)Nc6ccccc65)ccc34)cn2)CC1	5.00

###

The listing below reports IC50 for molecules tested on Cytochrome P450 1A2 (Homo sapiens).
Sequence (P05177 whole entry): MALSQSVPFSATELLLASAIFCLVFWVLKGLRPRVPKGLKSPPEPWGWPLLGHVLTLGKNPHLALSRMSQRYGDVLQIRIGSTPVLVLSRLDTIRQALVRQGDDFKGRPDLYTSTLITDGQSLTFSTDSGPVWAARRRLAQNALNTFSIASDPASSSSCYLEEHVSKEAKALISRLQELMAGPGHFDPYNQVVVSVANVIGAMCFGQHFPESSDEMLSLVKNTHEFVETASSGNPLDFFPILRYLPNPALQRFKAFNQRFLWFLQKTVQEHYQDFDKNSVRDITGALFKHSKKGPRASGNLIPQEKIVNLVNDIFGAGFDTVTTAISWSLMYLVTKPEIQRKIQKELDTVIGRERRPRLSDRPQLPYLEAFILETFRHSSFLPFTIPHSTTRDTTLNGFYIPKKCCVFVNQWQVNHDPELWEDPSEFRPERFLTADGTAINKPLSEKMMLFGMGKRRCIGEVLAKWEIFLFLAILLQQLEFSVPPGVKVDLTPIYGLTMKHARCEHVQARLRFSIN
OBSERVED_PROPERTY: IC50

STRUCTURE_SMILES	ASSAY_TARGET	OBSERVED_PROPERTY	VAL
COc1ccc2c(c1)/C(=C\c1ccc3c(/C=C/c4ccc(N5CCN(C)CC5)nc4)n[nH]c3c1)C(=O)N2	Cytochrome P450 1A2 (Homo sapiens)	IC50	> 10 µM
O=C1Nc2ccccc2/C1=C\c1ccc2c(/C=C/c3ccncc3)n[nH]c2c1	Cytochrome P450 1A2 (Homo sapiens)	IC50	> 10 µM
CN(C)Cc1ccc(/C=C/c2n[nH]c3cc(/C=C4/C(=O)Nc5ccccc54)ccc23)cc1	Cytochrome P450 1A2 (Homo sapiens)	IC50	> 10 µM

###

target: Serine/threonine-protein kinase PLK3 (Homo sapiens); test: Inhibition of PLK3 (unknown origin) by FRET-based homogeneous assay
Sequence (Q9H4B4 whole entry): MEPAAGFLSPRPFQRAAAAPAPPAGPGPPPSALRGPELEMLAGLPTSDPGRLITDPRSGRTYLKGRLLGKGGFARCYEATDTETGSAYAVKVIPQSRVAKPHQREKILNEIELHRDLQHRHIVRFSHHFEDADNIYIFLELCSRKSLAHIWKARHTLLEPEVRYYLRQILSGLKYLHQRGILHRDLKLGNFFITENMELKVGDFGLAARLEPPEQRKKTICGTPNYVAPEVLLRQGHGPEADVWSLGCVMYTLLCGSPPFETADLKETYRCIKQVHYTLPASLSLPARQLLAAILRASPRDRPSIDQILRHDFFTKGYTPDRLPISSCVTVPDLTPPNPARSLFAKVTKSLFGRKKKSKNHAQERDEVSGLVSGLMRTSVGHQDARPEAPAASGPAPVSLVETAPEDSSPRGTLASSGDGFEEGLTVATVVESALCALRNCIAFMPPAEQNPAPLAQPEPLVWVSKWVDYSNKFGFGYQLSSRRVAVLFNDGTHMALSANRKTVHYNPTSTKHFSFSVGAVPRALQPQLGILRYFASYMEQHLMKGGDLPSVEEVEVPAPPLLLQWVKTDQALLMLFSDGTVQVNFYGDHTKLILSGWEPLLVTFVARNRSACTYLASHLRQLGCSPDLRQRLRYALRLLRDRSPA
pIC50: −log10 of the molar value.
This section presents molecules with their documented pIC50 values.
OBSERVED_PROPERTY: pIC50

STRUCTURE_SMILES	OBSERVED_PROPERTY	VAL
COc1ccc2c(c1)/C(=C\c1ccc3c(/C=C/c4ccncc4)n[nH]c3c1)C(=O)N2	pIC50	< 5.00
COc1ccc2c(c1)/C(=C\c1ccc3c(/C=C/c4cccnc4)n[nH]c3c1)C(=O)N2	pIC50	< 5.00
O=C1Nc2ccccc2/C1=C\c1ccc2c(/C=C/c3cccnc3)n[nH]c2c1	pIC50	< 5.00
COc1ccc2c(c1)/C(=C\c1ccc3c(/C=C/c4ccc(CN(C)C)cc4)n[nH]c3c1)C(=O)N2	pIC50	< 5.00
O=C1Nc2ccccc2/C1=C\c1ccc2[nH]nnc2c1	pIC50	< 5.00
O=C1Nc2ccc(F)cc2/C1=C/c1ccc2cn[nH]c2c1	pIC50	4.62
O=C1Nc2cc(Cl)ccc2/C1=C\c1ccc2cn[nH]c2c1	pIC50	< 5.00

###

assay: Permeability of the compound at pH 7.4 by PAMPA; assay type: ADME; conditions: read-out: permeability

STRUCTURE_SMILES	Papp
O=C1Nc2ccccc2/C1=C\c1ccc2c(/C=C/c3ccncc3)n[nH]c2c1	197 ×10⁻⁶ cm/s
CN(C)Cc1ccc(/C=C/c2n[nH]c3cc(/C=C4/C(=O)Nc5ccccc54)ccc23)cc1	276 ×10⁻⁶ cm/s
O=C1Nc2ccc(O)cc2/C1=C\c1ccc2c(/C=C/c3ccncc3)n[nH]c2c1	4 ×10⁻⁶ cm/s
COc1ccc2c(c1)/C(=C\c1ccc3c(/C=C/c4ccc(N5CCN(C)CC5)nc4)n[nH]c3c1)C(=O)N2	164 ×10⁻⁶ cm/s
O=C1Nc2ccccc2/C1=C\c1ccc2c(/C=C/c3ccc(C(=O)O)cc3)n[nH]c2c1	2.1 ×10⁻⁶ cm/s
CN1CCN(c2ccc(/C=C/c3n[nH]c4cc(/C=C5/C(=O)Nc6ccccc65)ccc34)cn2)CC1	335 ×10⁻⁶ cm/s

###

Molecular target: Serine/threonine-protein kinase PLK4 (Homo sapiens)
Sequence (O00444 whole entry): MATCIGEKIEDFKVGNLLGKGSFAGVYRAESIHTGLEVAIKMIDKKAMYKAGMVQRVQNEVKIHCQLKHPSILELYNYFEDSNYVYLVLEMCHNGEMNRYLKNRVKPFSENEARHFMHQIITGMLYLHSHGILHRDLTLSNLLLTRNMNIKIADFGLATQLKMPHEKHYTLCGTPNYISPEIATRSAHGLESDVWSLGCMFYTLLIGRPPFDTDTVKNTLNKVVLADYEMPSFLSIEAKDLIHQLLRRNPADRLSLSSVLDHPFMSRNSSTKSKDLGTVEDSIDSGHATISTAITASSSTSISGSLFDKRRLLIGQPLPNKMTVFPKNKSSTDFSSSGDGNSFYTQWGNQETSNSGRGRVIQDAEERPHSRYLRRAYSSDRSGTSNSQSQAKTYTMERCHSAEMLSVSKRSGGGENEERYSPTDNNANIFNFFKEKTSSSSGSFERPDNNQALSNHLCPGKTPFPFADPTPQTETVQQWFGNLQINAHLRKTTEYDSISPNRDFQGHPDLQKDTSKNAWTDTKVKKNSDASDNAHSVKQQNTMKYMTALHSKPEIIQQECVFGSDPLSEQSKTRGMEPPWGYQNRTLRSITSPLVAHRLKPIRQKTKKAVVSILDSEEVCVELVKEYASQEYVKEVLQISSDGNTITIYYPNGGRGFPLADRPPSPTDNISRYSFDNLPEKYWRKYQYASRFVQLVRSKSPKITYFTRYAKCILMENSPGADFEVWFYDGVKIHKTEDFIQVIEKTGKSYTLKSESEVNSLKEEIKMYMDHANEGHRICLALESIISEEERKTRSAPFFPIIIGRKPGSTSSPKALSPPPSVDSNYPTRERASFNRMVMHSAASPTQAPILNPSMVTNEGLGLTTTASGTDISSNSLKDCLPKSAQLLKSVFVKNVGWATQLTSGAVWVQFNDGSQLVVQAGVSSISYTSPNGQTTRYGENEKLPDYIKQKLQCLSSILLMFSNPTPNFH
Quick list: IC50 per entry.
OBSERVED_PROPERTY: IC50 (nM)

STRUCTURE_SMILES	OBSERVED_PROPERTY	UNITS	VAL
COc1ccc2c(c1)/C(=C\c1ccc3c(/C=C/c4ccncc4)n[nH]c3c1)C(=O)N2	IC50	nM	0.45
O=C1Nc2ccc(Cl)cc2/C1=C\c1ccc2c(/C=C/c3ccncc3)n[nH]c2c1	IC50	nM	2.3
O=C1Nc2ccc(Br)cc2/C1=C/c1ccc(O)c(O)c1	IC50	nM	13000
CC(=O)Nc1ccc2c(c1)NC(=O)/C2=C/c1ccc2cn[nH]c2c1	IC50	nM	1200
O=C1Nc2ccc(F)cc2/C1=C\c1ccc2cn[nH]c2c1	IC50	nM	60
O=C1Nc2ccccc2/C1=C/c1ccc2[nH]ncc2c1	IC50	nM	390
O=C1Nc2ccc(F)cc2/C1=C/c1ccc2cn[nH]c2c1	IC50	nM	240
O=C1Nc2ccccc2/C1=C\c1ccc2c(/C=C/c3ccc(C(=O)O)cc3)n[nH]c2c1	IC50	nM	0.82
COc1ccc2c(c1)/C(=C\c1ccc3c(/C=C/c4ccc(N5CCN(C)CC5)nc4)n[nH]c3c1)C(=O)N2	IC50	nM	0.61
COc1cc(/C=C2\C(=O)N(C)c3ccc(Br)cc32)cc(Cl)c1O	IC50	nM	6100
